# Test system: T1, MDM2 (UniProt Q00987 1-491)
# T1 construct: MDM2, the protein target of pb13
# T1 sequence (Q00987 whole entry): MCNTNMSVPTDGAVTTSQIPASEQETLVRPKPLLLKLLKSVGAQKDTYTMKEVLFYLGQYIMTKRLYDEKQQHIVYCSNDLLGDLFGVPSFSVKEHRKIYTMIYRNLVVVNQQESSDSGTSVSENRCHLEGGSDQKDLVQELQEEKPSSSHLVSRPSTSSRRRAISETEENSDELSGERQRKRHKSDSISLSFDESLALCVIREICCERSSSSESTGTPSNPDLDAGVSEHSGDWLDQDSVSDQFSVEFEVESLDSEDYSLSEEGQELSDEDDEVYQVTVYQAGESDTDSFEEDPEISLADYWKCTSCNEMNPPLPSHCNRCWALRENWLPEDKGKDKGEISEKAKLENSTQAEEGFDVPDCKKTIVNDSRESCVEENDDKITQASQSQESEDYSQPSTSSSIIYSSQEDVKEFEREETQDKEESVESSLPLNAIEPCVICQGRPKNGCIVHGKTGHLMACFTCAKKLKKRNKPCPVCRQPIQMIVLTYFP
# Protocol: fluorescence polarisation; competition assay on MDM2 (reported assay, ref. 17); peptides purified by HPLC to >95%; tracer not named
# Condition description: both partners purified
Bridges are numbered along the chain shown (N, C = ends). Where no end group is shown, it is not given here.
Readout label: pKi
# pKi is unitless: minus log10 of the molar concentration; print number only

Req: Item GCEKATESESPCPCIFPELCPWIVCC (disulfide 12-25, 14-20, 2-26) [oxidized peptide 15] has what recorded pKi?
Resp: 7.05
